# protocol-notes: chemical genetic growth profiling, strain panel (AID 1159580);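 also: tested at 20 µM; growth read once vehicle control cultures reached saturation at 30 °C; 1 = growth at the plate median or of vehicle wells; lower values mean less growth of the strain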
# condition: S. cerevisiae deletion strains, growth OD, locus YBR229C, strain ROT2, active compounds read low
Out of some 5,500 compounds screened, about 2,000 (36%) were called active. Another 18% or so got no clear call; they are omitted. Some of the results follow.
Criterion: normalized growth strictly under 1. Met: Y. Not met: N.

Query: Item COc1cc(OC)c2c(=O)c(O)c(-c3ccc(OC)c(OC)c3)oc2c1 : normalized growth beneath 1, strictly?
Response: Y

Query: Item CN(C)C=Nc1nnc(SCc2ccc(C(=O)Oc3ccc(F)cc3F)cc2)s1 : normalized growth beneath 1, strictly?
Response: N

Query: Item O=C(O[C@@H]1Cc2c(O)cc(O)cc2O[C@@H]1c1cc(O)c(=O)c2c(O)c(O)cc([C@H]3Oc4cc(O)cc(O)c4C[C@H]3O)c2c1)c1cc(O)c(O)c(O)c1 : normalized growth beneath 1, strictly?
Response: Y

Query: Item CC1(C)C(=O)C=C[C@@]2(C)C1C[C@@H](O)[C@]1(C)C2CC[C@@]2(C)[C@H](c3ccoc3)OC(=O)[C@H]3O[C@]321 (stereo partly drawn) : normalized growth beneath 1, strictly?
Response: Y

Query: Item CCCCC1C(=O)N(c2ccccc2)N(c2ccc(O)cc2)C1=O (stereo not drawn) : normalized growth beneath 1, strictly?
Response: Y

***
Query: Item CC12CCC3c4ccc(OCc5ccccc5)cc4CCC3C1C[C@@H](O)[C@@H]2O (stereo partly drawn) : normalized growth beneath 1, strictly?
Response: Y

Query: Item O=C1CC(Nc2ccccc2)C=C1Nc1ccccc1 (stereo not drawn) : normalized growth beneath 1, strictly?
Response: N

###

# protocol-notes: chemical genetic growth profiling, strain panel (AID 1159580);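 also: tested at 20 µM; growth read once vehicle control cultures reached saturation at 30 °C; 1 = growth at the plate median or of vehicle wells; lower values mean less growth of the strain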
# condition: S. cerevisiae deletion strains, growth OD, locus YHR129C, strain ARP1, active compounds read low
The campaign covered roughly 5,500 compounds. About 2,000 (36%) were called active. Another 18% or so got no clear call; they are omitted. The list shows a part of the results.
# key: entry, value: normalized growth
Please give only the number in your answer, with no unit.

# annotated cases, reported normalized growth shown
Query: I'd like to know its normalized growth. The molecule in question is CC(=O)O[C@@H]1CC2C(C)(C)C(=O)C=C[C@]2(C)C2CC[C@@]3(C)[C@H](c4ccoc4)OC(=O)[C@H]4O[C@]43[C@@]21C (stereo partly drawn)
Response: 1

Query: I'd like to know its normalized growth. The molecule in question is CC1(C)C2CC(=O)[C@]3(C)C(CC[C@@]4(C)[C@H](c5ccoc5)OC(=O)[C@H]5O[C@]543)[C@@]2(C)C(=O)C[C@H]1O (stereo partly drawn)
Response: 1.01

Query: I'd like to know its normalized growth. The molecule in question is NC(N)=NC(=O)c1nc(Cl)c(N)nc1N
Response: 1.02

Query: I'd like to know its normalized growth. The molecule in question is CC1(C)C(=O)C=C[C@@]2(C)C1C=C[C@]1(C)C2CC[C@@]2(C)[C@H](c3ccoc3)OC(=O)C3OC321 (stereo partly drawn)
Response: 0.926

***
Query: I'd like to know its normalized growth. The molecule in question is CC(=O)O[C@@H]1CC(=O)[C@@]2(C)C(CC(=O)[C@]3(C)C2CC[C@@]2(C)[C@H](c4ccoc4)OC(=O)C4OC423)C1(C)C (stereo partly drawn)
Response: 1

Query: I'd like to know its normalized growth. The molecule in question is NC(N)=NC(=O)c1nc(Cl)c(N2CCCCCC2)nc1N
Response: 1

Query: I'd like to know its normalized growth. The molecule in question is CC1(C)C2CC(=O)[C@]3(C)C(CC[C@@]4(C)[C@H](c5ccoc5)OC(=O)C5OC543)[C@@]2(C)[C@@H](O)C[C@H]1O (stereo partly drawn)
Response: 1.03

Query: I'd like to know its normalized growth. The molecule in question is NS(=O)(=O)c1cc(C2(O)NC(=O)c3ccccc32)ccc1Cl (stereo not drawn)
Response: 1.01

###

# protocol-notes: chemical genetic growth profiling, strain panel (AID 1159580);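 also: tested at 20 µM; growth read once vehicle control cultures reached saturation at 30 °C; 1 = growth at the plate median or of vehicle wells; lower values mean less growth of the strain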
# condition: S. cerevisiae deletion strains, growth OD, locus YNL183C, strain NPR1, active compounds read low
In all, about 5,500 compounds went through this assay and about 2,000 (36%) were called active. Not shown: some 18% with an inconclusive outcome. The list shows a part of the results.
# key: entry, value: normalized growth
Please give only the number in your answer, with no unit.

Query: I'd like to know its normalized growth. The compound in question is C[C@]12CCC3c4ccc(OS(=O)(=O)O)cc4CCC3C1CC[C@H]2O (some centres undefined)
Response: 0.913

Query: I'd like to know its normalized growth. The compound in question is O=c1c(O)c(-c2ccc(O)cc2O)oc2cc(O)cc(O)c12
Response: 0.961

Query: I'd like to know its normalized growth. The compound in question is O=C(O)Cc1cnc[nH]1
Response: 0.938

Query: I'd like to know its normalized growth. The compound in question is O=c1cc(-c2ccc(O)cc2)oc2cc(O[C@@H]3O[C@H](CO)[C@@H](O)[C@H](O)[C@H]3O)cc(O)c12
Response: 0.975

Query: I'd like to know its normalized growth. The compound in question is CC1O[C@@H](Oc2c(-c3ccc(O)c(O)c3)oc3cc(O)cc(O)c3c2=O)[C@H](O)[C@H](O)[C@H]1O (some centres undefined)
Response: 0.919

Query: I'd like to know its normalized growth. The compound in question is O=C1/C(=C/c2ccccn2)CCc2ccccc21
Response: 0.84

Query: I'd like to know its normalized growth. The compound in question is COc1cc(Br)cc(C=Nc2ccc(Sc3ccccc3)nc2Sc2ccccc2)c1O
Response: 0.72

Query: I'd like to know its normalized growth. The compound in question is NC(N)=NC(=O)c1nc(Cl)c(N2CCCCCC2)nc1N
Response: 1.02

Query: I'd like to know its normalized growth. The compound in question is OC(COc1ccc(F)cc1)(c1ccccc1)c1ccccc1
Response: 1.12

Query: I'd like to know its normalized growth. The compound in question is Cc1ccccc1OCC(O)CO (centres undefined)
Response: 0.919

***
Query: I'd like to know its normalized growth. The compound in question is NC(=O)CN1CCCC1=O
Response: 0.915

Query: I'd like to know its normalized growth. The compound in question is C[C@@H]1O[C@@H](OC[C@H]2OC(Oc3c(-c4ccc(O)c(O)c4)oc4cc(O)cc(O)c4c3=O)[C@H](O)[C@@H](O)[C@@H]2O)[C@H](O)[C@H](O)[C@H]1O (some centres undefined)
Response: 0.999

Query: I'd like to know its normalized growth. The compound in question is Cc1ccc(NNC(=O)c2cccs2)cc1Cl
Response: 0.979

Query: I'd like to know its normalized growth. The compound in question is O=c1c(O)c(-c2ccc(O)c(O)c2)oc2c(O[C@@H]3O[C@H](CO)[C@H](O)[C@@H](O)[C@H]3O)c(O)cc(O)c12
Response: 0.913

Query: I'd like to know its normalized growth. The compound in question is O=c1c(O)c(-c2ccc(O)c(O)c2)oc2cc(O)cc(O)c12
Response: 0.928

Query: I'd like to know its normalized growth. The compound in question is COc1ccc(-c2cc(=O)c3c(O)cc(O[C@@H]4O[C@H](CO[C@H]5O[C@H](C)[C@@H](O)[C@H](O)[C@@H]5O)[C@@H](O)[C@H](O)[C@H]4O)cc3o2)cc1O
Response: 0.989

Query: I'd like to know its normalized growth. The compound in question is CC(=O)O[C@@H]1CC2C(C)(C)C(=O)C=C[C@]2(C)C2CC[C@@]3(C)[C@H](c4ccoc4)OC(=O)[C@H]4O[C@]43[C@@]21C (some centres undefined)
Response: 0.943

Query: I'd like to know its normalized growth. The compound in question is CC(=O)Oc1ccc2c(c1C(C)C)CCC1C(C)(C)CCC[C@]21C (some centres undefined)
Response: 0.928

Query: I'd like to know its normalized growth. The compound in question is CO[C@@]1(NC(=O)C(C(=O)O)c2ccc(O)cc2)C(=O)N2C(C(=O)O)=C(CSc3nnnn3C)CO[C@@H]21 (some centres undefined)
Response: 0.949

###

# protocol-notes: chemical genetic growth profiling, strain panel (AID 1159580);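 also: tested at 20 µM; growth read once vehicle control cultures reached saturation at 30 °C; 1 = growth at the plate median or of vehicle wells; lower values mean less growth of the strain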
# condition: S. cerevisiae deletion strains, growth OD, locus YJR043C, strain POL32, active compounds read low
Among all 5,500 compounds or so, about 2,000 (36%) were called active. About 18% were inconclusive and are not listed. This is one part of the list.
attribute-measured: normalized growth
Please give only the number in your answer, with no unit.

# annotated cases, reported normalized growth shown
Query: I'd like to know its normalized growth. The compound in question is NS(=O)(=O)c1cc(C2(O)NC(=O)c3ccccc32)ccc1Cl (stereo not given)
Response: 0.986

Query: I'd like to know its normalized growth. The compound in question is COc1ccc(Cl)cc1C(=O)NCCc1ccc(S(=O)(=O)NC(=O)NC2CCCCC2)cc1
Response: 1.03

Query: I'd like to know its normalized growth. The compound in question is O=C(O[C@@H]1Cc2c(O)cc(O)cc2O[C@@H]1c1cc(O)c(=O)c2c(O)c(O)cc([C@H]3Oc4cc(O)cc(O)c4C[C@H]3OC(=O)c3cc(O)c(O)c(O)c3)c2c1)c1cc(O)c(O)c(O)c1
Response: 0.599

***
Query: I'd like to know its normalized growth. The compound in question is COc1ccc(CCNc2ccc(C(F)(F)F)cc2N)cc1OC
Response: 0.996

Query: I'd like to know its normalized growth. The compound in question is COC(=O)CSc1nc2ccc(Cl)cc2s1
Response: 0.977

Query: I'd like to know its normalized growth. The compound in question is COc1cc(OC)c2c(=O)c(O)c(-c3ccc(OC)c(OC)c3)oc2c1
Response: 0.238

Query: I'd like to know its normalized growth. The compound in question is C[C@@H]([C@H](O)c1ccccc1)N(C)C
Response: 1.01

Query: I'd like to know its normalized growth. The compound in question is Cc1ccccc1OCC(O)CO (stereo not given)
Response: 1.02

Query: I'd like to know its normalized growth. The compound in question is OCC(O)C(O)C(O)C(O)C(O)CO (stereo not given)
Response: 1.02

Query: I'd like to know its normalized growth. The compound in question is CC12CCC3c4ccc(OC(=O)c5ccccc5)cc4CCC3C1CCC2O (stereo not given)
Response: 1.01

Query: I'd like to know its normalized growth. The compound in question is COC(=O)CSc1ncnc2c(C)csc12
Response: 0.973

Query: I'd like to know its normalized growth. The compound in question is COc1ccccc1Oc1ccc(C(F)(F)F)cc1NC(=O)NC(=O)c1ccccc1F
Response: 0.984

Query: I'd like to know its normalized growth. The compound in question is CC(C)[N+](C)(CCC(C(N)=O)(c1ccccc1)c1ccccc1)C(C)C
Response: 1.01

Query: I'd like to know its normalized growth. The compound in question is CN(C)C=Nc1nnc(SCc2ccc(C(=O)Oc3ccc(F)cc3F)cc2)s1
Response: 0.949

Query: I'd like to know its normalized growth. The compound in question is O=C(O[C@@H]1Cc2c(O)cc(O)cc2O[C@@H]1c1cc(O)c(=O)c2c(O)c(O)cc([C@H]3Oc4cc(O)cc(O)c4C[C@H]3O)c2c1)c1cc(O)c(O)c(O)c1
Response: 0.244

Query: I'd like to know its normalized growth. The compound in question is O=C(OC1Cc2c(O)cc(O)cc2OC1c1cc(=O)c(O)c2c(O)c(O)cc(C3Oc4cc(O)cc(O)c4CC3O)c2c1)c1cc(O)c(O)c(O)c1 (stereo not given)
Response: 0.203

Query: I'd like to know its normalized growth. The compound in question is CCCCOc1cc(C(=O)NCCN(CC)CC)c2ccccc2n1
Response: 1.02

Query: I'd like to know its normalized growth. The compound in question is CC(C)N(CCC(C(N)=O)(c1ccccc1)c1ccccn1)C(C)C (stereo not given)
Response: 1.05

Query: I'd like to know its normalized growth. The compound in question is CO[C@@]1(NC(=O)C(C(=O)O)c2ccc(O)cc2)C(=O)N2C(C(=O)O)=C(CSc3nnnn3C)CO[C@@H]21 (stereo not given in full)
Response: 1.01

Query: I'd like to know its normalized growth. The compound in question is CC(=O)OC1CN2CCC1CC2 (stereo not given)
Response: 1.01
